System: DC2.4 cells
Experiment: In vitro transfection of DC2.4 cells with EGFP mRNA LNP preparation (flow cytometry)
Type: cell-based, mouse
Details: DC2.4 cells, EGFP mRNA LNP, 200 ng mRNA per well, flow cytometry
Just a reminder that ties go to No: only Cell Viability strictly below 90% counts as Yes.

[
  {
    "COMPOUND": "CCCCCCCCCCC(O)CN(CCOCCOCCN(CCOCCOCCN(CC(O)CCCCCCCCCC)CC(O)CCCCCCCCCC)CCN1CCN(CCO)CC1)CC(O)CCCCCCCCCC (stereo not drawn)",
    "SYSTEM UNDER TEST": "DC2.4 cells",
    "ASSIGNED LABEL": "No"
  },
  {
    "COMPOUND": "CCCCCCCCCCCCCCCCC(O)CN(CCOCCOCCOCCN(CCOCCOCCOCCN(CC(O)CCCCCCCCCCCCCCCC)CC(O)CCCCCCCCCCCCCCCC)CCN1CCN(C)CC1)CC(O)CCCCCCCCCCCCCCCC (stereo not drawn)",
    "SYSTEM UNDER TEST": "DC2.4 cells",
    "ASSIGNED LABEL": "No"
  },
  {
    "COMPOUND": "CCCCCCCCCCCCCCC(O)CN(CCOCCOCCOCCN(CCOCCOCCOCCN(CC(O)CCCCCCCCCCCCCC)CC(O)CCCCCCCCCCCCCC)CCN1CCN(CCO)CC1)CC(O)CCCCCCCCCCCCCC (stereo not drawn)",
    "SYSTEM UNDER TEST": "DC2.4 cells",
    "ASSIGNED LABEL": "No"
  },
  {
    "COMPOUND": "CCCCCCCCCCC(O)CN(CCOCCOCCOCCN(CCOCCOCCOCCN(CC(O)CCCCCCCCCC)CC(O)CCCCCCCCCC)CCN1CCN(C)CC1)CC(O)CCCCCCCCCC (stereo not drawn)",
    "SYSTEM UNDER TEST": "DC2.4 cells",
    "ASSIGNED LABEL": "Yes"
  },
  {
    "COMPOUND": "CCCCCCCCCCC(O)CN(CCN(CCN1CCN(C)CC1)CCN(CC(O)CCCCCCCCCC)CC(O)CCCCCCCCCC)CC(O)CCCCCCCCCC (stereo not drawn)",
    "SYSTEM UNDER TEST": "DC2.4 cells",
    "ASSIGNED LABEL": "Yes"
  }
]

Source listed as patent US20250345277A1.
